# test.conditions: in methanol, 293.15 K
endpoint: solubility (mole fraction)

> print(dat)
         smiles.structure  meas.value
1  O=C1c2ccccc2-c2ccccc21      0.0084

====

# test.conditions: in n-butanol, 278.15 K
endpoint: solubility (mole fraction)

> print(dat)
         smiles.structure                    endpoint  meas.value
1  O=C1c2ccccc2-c2ccccc21  solubility (mole fraction)      0.0119

====

# test.conditions: in ethyl formate, 278.15 K
endpoint: solubility (mole fraction)

> print(dat)
         smiles.structure  meas.value
1  O=C1c2ccccc2-c2ccccc21      0.0907

====

# test.conditions: in ethyl acetate, 308.15 K
endpoint: solubility (mole fraction)

> print(dat)
         smiles.structure                    endpoint  meas.value
1  O=C1c2ccccc2-c2ccccc21  solubility (mole fraction)       0.284

====

# test.conditions: in DMSO, 283.15 K
endpoint: solubility (mole fraction)

> print(dat)
         smiles.structure  meas.value
1  O=C1c2ccccc2-c2ccccc21      0.0609

====

# test.conditions: in ethyl formate, 293.15 K
endpoint: solubility (mole fraction)

> print(dat)
         smiles.structure                    endpoint  meas.value
1  O=C1c2ccccc2-c2ccccc21  solubility (mole fraction)       0.163

====

# test.conditions: in isopropanol, 293.15 K
endpoint: solubility (mole fraction)

> print(dat)
         smiles.structure  meas.value
1  O=C1c2ccccc2-c2ccccc21      0.0217

====

# test.conditions: in DMSO, 288.15 K
endpoint: solubility (mole fraction)

> print(dat)
         smiles.structure  meas.value
1  O=C1c2ccccc2-c2ccccc21      0.0728

====

# test.conditions: in acetonitrile, 303.15 K
endpoint: solubility (mole fraction)

> print(dat)
         smiles.structure                    endpoint  meas.value
1  O=C1c2ccccc2-c2ccccc21  solubility (mole fraction)       0.134

====

# test.conditions: in acetonitrile, 298.15 K
endpoint: solubility (mole fraction)

> print(dat)
         smiles.structure  meas.value
1  O=C1c2ccccc2-c2ccccc21       0.102

====

# test.conditions: in isopropanol, 308.15 K
endpoint: solubility (mole fraction)

> print(dat)
         smiles.structure  meas.value
1  O=C1c2ccccc2-c2ccccc21      0.0472

====

# test.conditions: in isobutanol, 288.15 K
endpoint: solubility (mole fraction)

> print(dat)
         smiles.structure                    endpoint  meas.value
1  O=C1c2ccccc2-c2ccccc21  solubility (mole fraction)      0.0241

====

# test.conditions: in methanol, 278.15 K
endpoint: solubility (mole fraction)

> print(dat)
         smiles.structure                    endpoint  meas.value
1  O=C1c2ccccc2-c2ccccc21  solubility (mole fraction)      0.0037

====

# test.conditions: in acetonitrile, 293.15 K
endpoint: solubility (mole fraction)

> print(dat)
         smiles.structure  meas.value
1  O=C1c2ccccc2-c2ccccc21      0.0657

====

# test.conditions: in n-hexane, 308.15 K
endpoint: solubility (mole fraction)

> print(dat)
         smiles.structure  meas.value
1  O=C1c2ccccc2-c2ccccc21      0.0169

====

# test.conditions: in ethyl formate, 318.15 K
endpoint: solubility (mole fraction)

> print(dat)
         smiles.structure  meas.value
1  O=C1c2ccccc2-c2ccccc21       0.409
